- Assay: Rat plasma stability (half-life in vitro)
- Format: in vitro ADME
- Condition label: male, Sprague-Dawley, rat, plasma, Table V; rat plasma; read-out: Half-life t1/2
Endpoint label: half-life at […]

Compound: CC(C)C[C@@H]1NC(=O)[C@H](CCCNC(=N)N)NC(=O)[C@@H](N)CC=CC[C@@H](C(=O)N[C@@H](CCCCN)C(=O)NCC(=O)N2CCC[C@H]2C(=O)N[C@H](Cc2ccc3ccccc3c2)C(=O)O)NC(=O)[C@H](CO)NC1=O [Compound 43, NH2-c[X-R-L-S-X]c-K-G-P-(D-2Nal)]
Endpoint label: half-life at […]
Obs value: > 24 h

----------
- Experimental target: hAPJ receptor (Homo sapiens)
- Construct: expressed in transfected cells; host or cells: HEK293, transient transfection with PEI
- Sequence (P35414 whole entry): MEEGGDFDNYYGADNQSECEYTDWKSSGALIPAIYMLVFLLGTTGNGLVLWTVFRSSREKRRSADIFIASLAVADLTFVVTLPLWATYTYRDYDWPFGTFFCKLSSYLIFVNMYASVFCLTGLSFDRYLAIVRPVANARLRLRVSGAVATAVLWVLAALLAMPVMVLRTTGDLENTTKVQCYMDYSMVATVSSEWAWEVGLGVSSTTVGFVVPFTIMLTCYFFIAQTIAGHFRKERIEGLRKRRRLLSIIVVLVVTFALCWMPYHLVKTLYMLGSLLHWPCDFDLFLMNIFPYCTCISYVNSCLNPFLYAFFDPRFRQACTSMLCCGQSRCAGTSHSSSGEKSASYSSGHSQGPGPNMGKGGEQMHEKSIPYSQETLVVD
- Assay: BRET-based β-arrestin2 recruitment assay in HEK293 cells
- Assay type: cell-based
pEC50: −log10 of the molar value. Bridge positions count the residues as written; N and C are the ends. Peptide text beside a SMILES is read from it. * marks the point of attachment. Benzoyl(4-Br) = O=C(c1ccc(Br)cc1)*
Endpoint label: pEC50

Compound: CC(C)C[C@@H]1NC(=O)[C@@H]2CCCN2C(=O)[C@@H](NC(=O)[C@H](CO)NC(=O)[C@H](CCCNC(=N)N)NC(=O)[C@H](CCCNC(=N)N)NC(=O)c2ccc(Br)cc2)CCC(=O)NCCCC[C@@H](C(=O)N[C@@H](CCCNC(=N)N)C(=O)N[C@H](C(=O)N2CCC[C@H]2C(=O)N[C@@H](Cc2ccccc2)C(=O)N2CCC[C@H]2C(=O)O)C(C)C)NC(=O)[C@H](Cc2c[nH]cn2)NC1=O [Compound 89, 4BrBz-R-R-S-[E-P-L-H-K]-R-V-P-F-P] ({Benzoyl(4-Br)}-RRSEPLHKRVPFP-OH; lactam 4-8)
Obs value: 7.30
